target: SULT1A3 (Homo sapiens); construct: recombinant human enzyme, commercial (BD Gentest); assay: PNP sulfation, UPLC-UV, […] inhibitor
Each item that follows carries a reported IC50.
Respond numerically; units are µM and should not be typed.

Worked cases, answers included:
Oc1c(Br)cc(Br)cc1Br    4.02
Oc1ccc(Br)cc1Br    25.5
Oc1cc(Br)ccc1Br    12.9

Look up IC50: Oc1ccccc1Br
8.88

* * *

target: SULT1A3 (Homo sapiens, UniProt P0DMM9); construct: recombinant human enzyme, commercial (BD Gentest); assay: PNP sulfation, UPLC-UV, Lineweaver-Burk with slope replot
Sequence (P0DMM9 whole entry): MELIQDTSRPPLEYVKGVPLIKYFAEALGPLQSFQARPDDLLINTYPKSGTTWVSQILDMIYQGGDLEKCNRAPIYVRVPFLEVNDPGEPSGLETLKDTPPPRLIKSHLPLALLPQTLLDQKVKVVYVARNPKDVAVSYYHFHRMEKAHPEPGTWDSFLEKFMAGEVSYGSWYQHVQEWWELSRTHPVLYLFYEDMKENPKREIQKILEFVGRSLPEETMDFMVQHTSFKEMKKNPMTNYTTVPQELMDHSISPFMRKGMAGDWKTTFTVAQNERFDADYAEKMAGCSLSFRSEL
READOUT LABEL: Ki (µM)
Respond numerically; units are µM and should not be typed.

# query: Ki | item Oc1c(Br)cc(Br)cc1Br | system: SULT1A3 (Homo sapiens, UniProt P0DMM9)
16.3

* * *

molecular target: SULT1B1 (Homo sapiens); construct: recombinant human enzyme, commercial (BD Gentest); assay: PNP sulfation, UPLC-UV, […] inhibitor
Sequence (O43704 whole entry): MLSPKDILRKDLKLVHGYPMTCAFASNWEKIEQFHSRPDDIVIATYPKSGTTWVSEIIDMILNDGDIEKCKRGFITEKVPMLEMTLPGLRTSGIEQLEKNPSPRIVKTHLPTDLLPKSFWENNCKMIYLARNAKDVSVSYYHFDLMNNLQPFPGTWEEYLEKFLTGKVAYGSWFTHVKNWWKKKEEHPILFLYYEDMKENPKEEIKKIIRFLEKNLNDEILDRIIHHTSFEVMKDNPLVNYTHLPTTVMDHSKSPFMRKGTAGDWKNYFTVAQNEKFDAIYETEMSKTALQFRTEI
READOUT LABEL: IC50 (µM)
Respond numerically; units are µM and should not be typed.

Worked cases, answers included:
Oc1ccccc1Br    1.07
Oc1c(Br)cc(Br)cc1Br    1.06
Oc1cc(Br)ccc1Br    5.42

Look up IC50: Oc1ccc(Br)cc1Br
4.22

* * *

Molecular target: SULT1E1 (Homo sapiens)
Construct: recombinant human enzyme, commercial (BD Gentest)
Sequence (P49888 1-294): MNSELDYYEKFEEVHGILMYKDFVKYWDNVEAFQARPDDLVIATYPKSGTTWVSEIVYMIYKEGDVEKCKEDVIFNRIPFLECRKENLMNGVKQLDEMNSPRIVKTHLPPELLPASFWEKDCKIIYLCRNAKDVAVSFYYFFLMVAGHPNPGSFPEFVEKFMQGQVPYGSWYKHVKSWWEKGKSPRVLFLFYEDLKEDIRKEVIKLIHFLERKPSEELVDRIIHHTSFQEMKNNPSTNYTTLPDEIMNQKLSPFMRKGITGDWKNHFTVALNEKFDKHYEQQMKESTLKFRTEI
Assay: PNP sulfation, UPLC-UV, […] inhibitor
READOUT LABEL: IC50 (µM)
Respond numerically; units are µM and should not be typed.

Oc1ccc(Br)cc1Br [2,4-DBP]    3.24
Oc1c(Br)cc(Br)cc1Br [2,4,6-TBP]    6.06

Read the next record carefully.
Look up IC50: Oc1ccccc1Br [2-BP]
25.9

* * *

Each item that follows carries a reported IC50.
molecular target: SULT1A1 (Homo sapiens, UniProt P50225); construct: recombinant human enzyme, commercial (BD Gentest); experiment: PNP sulfation, UPLC-UV, […] inhibitor
Sequence (P50225 whole entry): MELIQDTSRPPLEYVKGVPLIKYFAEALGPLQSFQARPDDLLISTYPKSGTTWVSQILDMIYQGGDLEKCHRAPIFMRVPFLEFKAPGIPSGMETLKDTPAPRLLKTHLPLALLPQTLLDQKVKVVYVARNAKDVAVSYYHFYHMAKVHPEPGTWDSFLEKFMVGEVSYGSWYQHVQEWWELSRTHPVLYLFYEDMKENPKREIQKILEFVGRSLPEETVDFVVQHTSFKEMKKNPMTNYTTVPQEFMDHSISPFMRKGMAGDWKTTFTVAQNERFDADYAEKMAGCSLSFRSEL
Respond numerically; units are nM and should not be typed.

Look up IC50: Oc1ccc(Br)cc1Br [2,4-DBP]
1030

Look up IC50: Oc1cc(Br)ccc1Br [2,5-DBP]
1240

Look up IC50: Oc1ccccc1Br [2-BP]
1040

Look up IC50: Oc1c(Br)cc(Br)cc1Br [2,4,6-TBP]
1020
